# measured-on: GCase (Homo sapiens, UniProt P04062)
# Construct: endogenous in cells
# Sequence (P04062 40-536): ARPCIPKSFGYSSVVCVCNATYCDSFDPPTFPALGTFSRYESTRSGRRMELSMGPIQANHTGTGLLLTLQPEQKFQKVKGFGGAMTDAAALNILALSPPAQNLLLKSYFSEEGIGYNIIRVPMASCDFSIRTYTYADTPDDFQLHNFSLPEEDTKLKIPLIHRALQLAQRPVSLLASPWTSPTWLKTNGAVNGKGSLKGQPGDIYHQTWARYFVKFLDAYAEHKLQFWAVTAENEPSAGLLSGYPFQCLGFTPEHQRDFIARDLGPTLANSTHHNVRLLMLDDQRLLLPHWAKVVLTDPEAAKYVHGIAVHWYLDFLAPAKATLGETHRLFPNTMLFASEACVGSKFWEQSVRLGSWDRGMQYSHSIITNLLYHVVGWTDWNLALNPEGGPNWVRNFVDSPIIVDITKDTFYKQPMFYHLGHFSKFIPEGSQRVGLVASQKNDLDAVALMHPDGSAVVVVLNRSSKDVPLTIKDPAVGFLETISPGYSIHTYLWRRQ
# method-description: activation of GCase in a live cell PFB assay in HELA cells
pEC50: −log10 of the molar value.
property-name: pEC50

Recorded results for 4 compounds are shown here.
| compound | pEC50 |
| --- | --- |
| C[C@H]1CCN(c2cnc3cnn(CC(F)F)c3n2)C[C@@H]1COc1cccnc1C(F)(F)F [Compound 48c] | 4.30 to 5.00 |
| O=C(c1cnn(-c2ccccc2)n1)N1CCC(Oc2ccccc2)CC1 [Compound 410] | 4.30 to 5.00 |
| CC1CCC(COc2cccnc2C(F)(F)F)CN1c1cnc2cnn(CC(F)(F)F)c2n1 (centres unmarked) [Compound 122] | > 5.00 |
| COc1cc(C(=O)N2CCCC(COc3ccccc3)C2)c(Cl)cc1Cl (centres unmarked) [Compound 155] | 4.30 to 5.00 |

Problem: Write down pEC50 measured for item Cc1nccn1CCCC(=O)N1CCC(OCc2ccccc2)CC1 [Compound 451]
Result: < 4.00
